From: patent US20250145684A1

Target: T1, HLA-B*08:01 (human)
T1 construct: MHC monomer first loaded with a UV-sensitive peptide that is cleaved by UV light and exchanged for the test peptide
Test: UV peptide exchange ELISA
attribute_measured: peptide exchange yield

For orientation, consider the following solved cases.
DGHMKVFSL [DGHMKVFSL (SEQ ID NO: 78)] : 20 to 50%
FNKLVTEL [FNKLVTEL (SEQ ID NO: 152)] : 20 to 50%
VLLMGPLHL [VLLMGPLHL (SEQ ID NO: 100)] : 20 to 50%

Asked: Tell me peptide exchange yield reported for TLKAMVQAW [TLKAMVQAW (SEQ ID NO: 92)]
Given back: 50 to 75%

Asked: Assign peptide exchange yield to the following record: LRKRKSPE [LRKRKSPE (SEQ ID NO: 207)]
Given back: 20 to 50%
